The following binders are shown together with reported 100 nM FACS (MFI Ratio) values.
target: T1, neuropilin-1 (NRP1) on HEK293 cells overexpressing NRP1 (UniProt O14786 22-923, limits assumed); assay: flow cytometry, HEK293-NRP1 vs HEK293
T1 construct: whole, on cells

{"BINDER": "NRP1-216 (antibody, IgG2, V domains shown) VH: EVQLLESGGGLVQPGGSLRLSCAASGFSFRNYAMSWVRQAPGKGLEWVSTVSGSGSSTYYADSVKGRFTISRDNSKNTLYLQMNSLRAEDTAVYYCARGRRGMPAPDTVRKMAKSHLYFDSWGQGTLVTVSS VL: DIQMTQSPSSLSASVGDRVTITCRASQSISNYLSWYQQKPGKAPKLLIYAASSLSGGVPSRFSGSGSGTDFTLTISSLQPEDFATYYCQQTYTTPYTFGGGTKVEIK", "100 nM FACS (MFI Ratio)": 3.6}

### Prompt Please supply the value of reported 100 nM FACS (MFI Ratio) for the item NRP1-15 (VHH) VHH: EVQLVESGGGLVQPGGSLRLSCAASGFTFSNYDMGWFRQAPGKEREFVAAISWSGTLTSYADSVKGRFTISADNSKNTAYLQMNSLKPEDTAVYYCARQRETGHLILYSDYYYGMDVWGQGTLVTVSS
### Response 6.5
